# credit: PubChem BioAssay (NCI)

system: A549/ATCC NSCLC; test: NCI-60 one-dose screen, 48 h; conditions: 10 µM unless noted
The panel holds about 83,000 compounds, 20% with a hit somewhere; the sample as a whole holds those more often. Calls of active or inactive are those of the source. The calls were made as follows: active = growth percent below 10; inactive = the rest.
Just give me one of these, please: 1 for active, -1 for inactive

- COMPOUND: "CC(=O)O[C@]1(C)C[C@H](O)[C@]2(O)C=CO[C@H](O[C@@H]3O[C@H](CO)[C@@H](O)[C@H](O)[C@H]3O)[C@@H]21"
  SYSTEM NAME: "A549/ATCC NSCLC"
  ANSWER LABEL: -1

Input: So what was the verdict on C[C@H]1Oc2cc(cnc2N)-c2c(nn(C)c2C#N)CN(C)C(=O)c2ccc(F)cc21 in this test?
Output: -1

Input: Called result for COc1cnc2c(c1)C(=O)c1c-2n(CCCNC2=NCCS2)c(=O)c2cc(Cl)ccc12
Output: 1

Input: Dear colleague, could you share the recorded outcome for Cc1cc([C@@H](C)Nc2ccccc2C(=O)O)c2nc(N3CCOCC3)cc(=O)n2c1 when you have a moment?
Output: -1

Input: How was Cc1ccc(NC(=O)Nc2ccc(Nc3ncnc4sc5c(c34)CCOC5)cc2)cc1Cl classified in this test?
Output: -1

Input: Recorded test outcome, item Cc1ccc(-c2cc3c(SCC(=O)Nc4cc(C(F)(F)F)ccc4Cl)nccn3n2)cc1
Output: -1

* * *

system: K-562 leukemia; experiment: NCI-60 one-dose screen, 48 h; settings: 10 µM unless noted
About 83,000 compounds went through this panel and 20% of them were active in at least one assay; those are over-represented in the sample as a whole. The source made the active and inactive calls. The calls were made as follows: active = growth percent below 10; inactive = the rest.
Field 'call' accepts True = active, False = inactive

Examples from the recorded data:
- CHEMICAL STRUCTURE: "Cn1cnc2c(F)c(Nc3ccc(Br)cc3F)c(C(=O)NOCCO)cc21"
  ANSWER LABEL: "False"
- CHEMICAL STRUCTURE: "COc1cc(-c2cc(-c3ccc(Nc4ccnc5cc(Cl)ccc45)cc3)nc(N3CCOCC3)n2)cc(OC)c1OC"
  ANSWER LABEL: "True"
- CHEMICAL STRUCTURE: "CNC(=O)c1c(C)oc2cc(Oc3ncnc4cc(OC)c(OC)cc34)ccc12"
  ANSWER LABEL: "False"
- CHEMICAL STRUCTURE: "Cc1cnc(NC(=O)Nc2cc(Br)c(C)cc2OC[C@@H]2CNCCO2)cn1"
  ANSWER LABEL: "True"
- CHEMICAL STRUCTURE: "CC(C)(C)CC(C)(C)Nc1c(-c2c(O)c3ccccc3oc2=O)nc2c(Cl)cc(C(F)(F)F)cn12"
  ANSWER LABEL: "False"
- CHEMICAL STRUCTURE: "O=C(Cn1cncn1)Nc1ccc(-c2nc3ccccc3s2)cc1"
  ANSWER LABEL: "False"
- CHEMICAL STRUCTURE: "C=CCN1C(=O)c2cccc3c(-c4ccc5c(c4)ncn5C4CCCCC4)ccc(c23)C1=O"
  ANSWER LABEL: "False"
- CHEMICAL STRUCTURE: "NC[C@@](O)(c1ccc(Cl)cc1)c1ccc(-c2cn[nH]c2)cc1"
  ANSWER LABEL: "False"

Shifting focus to the molecule that follows.
Input: For CCNC(=O)C#Cc1ccc2c(C(=Nc3ccc(CN(C)C)cc3)c3ccccc3)c(O)[nH]c2c1 , what call appears in the results of this test?
Output: True
